target: DHPS enzyme (dihydropteroate synthase) (Bacillus anthracis); assay: biochemical; details: 1 μg/mL; read-out: Inhibition % against DHPS enzyme
Sequence (Q81VW8 1-280): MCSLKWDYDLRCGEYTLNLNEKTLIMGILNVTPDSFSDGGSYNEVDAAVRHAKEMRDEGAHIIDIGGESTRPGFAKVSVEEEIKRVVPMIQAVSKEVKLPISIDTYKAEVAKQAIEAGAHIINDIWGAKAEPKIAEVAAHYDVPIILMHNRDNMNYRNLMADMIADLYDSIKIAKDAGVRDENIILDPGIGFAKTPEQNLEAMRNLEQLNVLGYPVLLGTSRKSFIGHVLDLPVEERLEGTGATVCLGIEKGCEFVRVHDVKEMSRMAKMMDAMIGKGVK
quantityKind: inhibition at 1 µg/mL (%)
One number for each entry, in %.

{"molecule": "O=c1[nH][nH]c(-c2ccc(F)cc2)c1-c1nc2ccccc2s1 [Compound 16a]", "testedTarget": "DHPS enzyme (dihydropteroate synthase) (Bacillus anthracis)", "readoutUnit": "%", "inhibition at 1 µg/mL": 26}
{"molecule": "O=c1[nH][nH]c(-c2ccc(Cl)cc2)c1-c1nc2ccccc2s1 [Compound 16b]", "testedTarget": "DHPS enzyme (dihydropteroate synthase) (Bacillus anthracis)", "readoutUnit": "%", "inhibition at 1 µg/mL": 31}
{"molecule": "Cc1ccc(-c2[nH][nH]c(=O)c2-c2nc3ccccc3s2)cc1 [Compound 16c]", "testedTarget": "DHPS enzyme (dihydropteroate synthase) (Bacillus anthracis)", "readoutUnit": "%", "inhibition at 1 µg/mL": 31}
{"molecule": "Cc1ccc(S(=O)(=O)NNC(=O)/C(=C/c2ccc(Cl)cc2)c2nc3ccccc3s2)cc1 [Compound 14b]", "testedTarget": "DHPS enzyme (dihydropteroate synthase) (Bacillus anthracis)", "readoutUnit": "%", "inhibition at 1 µg/mL": 24}
{"molecule": "O=c1[nH]c(-c2ccc(Cl)cc2)ccc1-c1nc2ccccc2s1 [Compound 12a]", "testedTarget": "DHPS enzyme (dihydropteroate synthase) (Bacillus anthracis)", "readoutUnit": "%", "inhibition at 1 µg/mL": 27}

Now examine the next entry.
Which value of inhibition at 1 µg/mL has been reported for Cc1ccc(/C=C(/C(=O)NNS(=O)(=O)c2ccc(C)cc2)c2nc3ccccc3s2)cc1 [Compound 14c] in the records?
21

====

system: K. pneumonia; experiment: MIC, twofold serial dilution, K. pneumonia; assay type: cell-based; conditions: Klebsiella pneumoniae; twofold serial dilution in broth, 37 °C 16–20 h; read-out: The Minimum Inhibitory Concentration (MIC), K. pneumonia
quantityKind: MIC
In your response, the unit should come after the numeric value.

Here are 3 compounds together with their reported answers.
{"compound": "O=c1[nH][nH]c(-c2ccc(F)cc2)c1-c1nc2ccccc2s1 [Compound 16a]", "MIC": "803 µM"}
{"compound": "Nc1ccc(S(=O)(=O)Nc2ncccn2)cc1 [Sulfadiazine, reference compound]", "MIC": "999 µM"}
{"compound": "Cc1ccc(S(=O)(=O)NNC(=O)/C(=C/c2ccc(Cl)cc2)c2nc3ccccc3s2)cc1 [Compound 14b]", "MIC": "1030 µM"}

Now examine the next entry.
Which value of MIC has been reported for Cc1ccc(-c2[nH][nH]c(=O)c2-c2nc3ccccc3s2)cc1 [Compound 16c] in the records?
813 µM

====

molecular target: DHPS enzyme (dihydropteroate synthase) (Bacillus anthracis); test: biochemical; settings: 0.1 μg/mL; read-out: Inhibition % against DHPS enzyme
Response key: t means inhibition at 0.1 µg/mL >= 10%; f means inhibition at 0.1 µg/mL < 10%.

{"compound": "O=c1[nH][nH]c(-c2ccc(Cl)cc2)c1-c1nc2ccccc2s1 [Compound 16b]", "group": "t"}

Kindly determine if inhibition at 0.1 µg/mL recorded for Cc1ccc(S(=O)(=O)NNC(=O)/C(=C/c2ccc(Cl)cc2)c2nc3ccccc3s2)cc1 [Compound 14b] is above or exactly 10%.
t
